# targetEntity: hCA XII (Homo sapiens, UniProt O43570)
# Construct: made in house
# Sequence (O43570 25-354): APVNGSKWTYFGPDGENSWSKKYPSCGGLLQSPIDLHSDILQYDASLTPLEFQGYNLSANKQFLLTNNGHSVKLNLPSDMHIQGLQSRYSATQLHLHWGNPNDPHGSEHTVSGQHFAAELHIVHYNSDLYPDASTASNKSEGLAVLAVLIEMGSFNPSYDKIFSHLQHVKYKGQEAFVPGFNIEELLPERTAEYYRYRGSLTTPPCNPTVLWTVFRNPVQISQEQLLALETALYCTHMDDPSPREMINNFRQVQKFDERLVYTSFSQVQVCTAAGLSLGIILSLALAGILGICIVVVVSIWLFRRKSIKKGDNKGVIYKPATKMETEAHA
# protocolDetails: stopped-flow CO2 hydrase assay, hCA XII
# Assay type: biochemical
# testConditions: sulphonamides; inhibitor-enzyme incubation 15 min; mean ± SEM of three assays
# Text: An Applied Photophysics stopped-flow instrument has been used for assaying the CA-catalysed CO2 hydration activity, as reported earlier. […] All hCA isoforms were recombinant proteins, being obtained in-house as reported earlier.
measurementName: log10 of Ki (log10 of the value in nM)

structurestring=COc1ccc2cc3[n+](cc2c1OCCCCCn1cc(COc2ccc(S(N)(=O)=O)cc2)nn1)CCc1cc2c(cc1-3)OCO2 measurementname="log10 of Ki" experimentalresult=0.46
structurestring=COc1ccc2cc3[n+](cc2c1OCCn1cc(-c2ccc(S(N)(=O)=O)cc2)nn1)CCc1cc2c(cc1-3)OCO2 measurementname="log10 of Ki" experimentalresult=0.86
structurestring=COc1ccc2cc3[n+](cc2c1OCCCn1cc(COc2ccc(S(N)(=O)=O)cc2)nn1)CCc1cc2c(cc1-3)OCO2 measurementname="log10 of Ki" experimentalresult=1.49
structurestring=COc1ccc2cc3[n+](cc2c1OCCCCCn1cc(-c2ccc(S(N)(=O)=O)cc2)nn1)CCc1cc2c(cc1-3)OCO2 measurementname="log10 of Ki" experimentalresult=1.26
structurestring=COc1ccc2cc3[n+](cc2c1OCCn1cc(COc2ccc(S(N)(=O)=O)cc2)nn1)CCc1cc2c(cc1-3)OCO2 measurementname="log10 of Ki" experimentalresult=0.64
structurestring=COc1ccc2cc3[n+](cc2c1OCc1cn(-c2ccc(S(N)(=O)=O)cc2)nn1)CCc1cc2c(cc1-3)OCO2 measurementname="log10 of Ki" experimentalresult=0.79

---

# key: entry, value: ΔΔT1/2 Tel23
# Test system: Tel23
# protocolDetails: CD melting experiments, Tel23 GQ
# Assay type: binding, human
# testConditions: ΔT1/2 of compound minus ΔT1/2 of berberine, 2 molar equiv
measurementName: ΔΔT1/2 Tel23 (°C)

structurestring=COc1ccc2cc3[n+](cc2c1OCCCCCn1cc(COc2ccc(S(N)(=O)=O)cc2)nn1)CCc1cc2c(cc1-3)OCO2 targetentity=Tel23 experimentalresult=1.0
structurestring=COc1ccc2cc3[n+](cc2c1OCCCCn1cc(-c2ccc(S(N)(=O)=O)cc2)nn1)CCc1cc2c(cc1-3)OCO2 targetentity=Tel23 experimentalresult=−0.5
structurestring=COc1ccc2cc3[n+](cc2c1OCCCn1cc(COc2ccc4ccc(=O)oc4c2)nn1)CCc1cc2c(cc1-3)OCO2 targetentity=Tel23 experimentalresult=1.0

---

# targetEntity: hCA IX (Homo sapiens, UniProt Q16790)
# Construct: made in house
# protocolDetails: stopped-flow CO2 hydrase assay, hCA IX
# Format: biochemical
# testConditions: hCA IX over hCA II
This listing pairs molecules with measured Selectivity index (SI) II/IX.
measurementName: Selectivity index (SI) II/IX

structurestring=COc1ccc2cc3[n+](cc2c1OCc1cn(-c2ccc4c(C)cc(=O)oc4c2)nn1)CCc1cc2c(cc1-3)OCO2 experimentalresult="> 194.2"
structurestring=COc1ccc2cc3[n+](cc2c1OCCCn1cc(CCOc2ccc4ccc(=O)oc4c2)nn1)CCc1cc2c(cc1-3)OCO2 experimentalresult="> 289.9"
structurestring=COc1ccc2cc3[n+](cc2c1OCc1cn(CCCCOc2ccc4ccc(=O)oc4c2)nn1)CCc1cc2c(cc1-3)OCO2 experimentalresult="> 392.2"
structurestring=COc1ccc2cc3[n+](cc2c1OCCCn1cc(CCCOc2ccc4ccc(=O)oc4c2)nn1)CCc1cc2c(cc1-3)OCO2 experimentalresult="> 169.8"
structurestring=COc1ccc2cc3[n+](cc2c1OCc1cn(CCCCCOc2ccc4ccc(=O)oc4c2)nn1)CCc1cc2c(cc1-3)OCO2 experimentalresult="> 1041"
structurestring=COc1ccc2cc3[n+](cc2c1OCCCCCn1cc(COc2ccc4ccc(=O)oc4c2)nn1)CCc1cc2c(cc1-3)OCO2 experimentalresult="> 205.8"
structurestring=COc1ccc2cc3[n+](cc2c1OCCCCn1cc(COc2ccc4ccc(=O)oc4c2)nn1)CCc1cc2c(cc1-3)OCO2 experimentalresult="> 578.0"
